The following compounds are listed with their measured pIC50 values.
- Test System: Cytochrome P450 2D6 (Homo sapiens, UniProt P10635)
- Sequence (P10635 whole entry): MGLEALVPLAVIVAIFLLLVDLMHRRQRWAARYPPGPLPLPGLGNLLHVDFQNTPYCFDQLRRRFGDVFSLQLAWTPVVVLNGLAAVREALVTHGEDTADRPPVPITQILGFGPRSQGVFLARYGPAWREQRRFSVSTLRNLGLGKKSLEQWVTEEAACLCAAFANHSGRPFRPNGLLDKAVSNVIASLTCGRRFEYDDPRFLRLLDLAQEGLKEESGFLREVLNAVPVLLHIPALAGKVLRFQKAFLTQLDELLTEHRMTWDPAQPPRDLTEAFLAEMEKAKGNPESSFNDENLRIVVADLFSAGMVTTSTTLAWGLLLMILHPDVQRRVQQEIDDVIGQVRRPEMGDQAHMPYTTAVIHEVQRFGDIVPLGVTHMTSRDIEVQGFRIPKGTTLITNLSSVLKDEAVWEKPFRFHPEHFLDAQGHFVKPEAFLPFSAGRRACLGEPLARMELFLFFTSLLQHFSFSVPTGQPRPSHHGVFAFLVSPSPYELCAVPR
- Procedure Text: Inhibition of CYP2D6 in human liver microsomes using dextromethorphan as substrate after 15 mins in presence of NADPH by LC-MS/MS analysis
- Type: ADME
pIC50: −log10 of the molar value.

{"columns": ["Compound", "pIC50"],
 "data": [
  ["Cc1csc2c1c(=O)n(CCc1ccccc1)c(=O)n2CC1CCCO1 (stereo in doubt; 7)", "< 4.70"]
]}

Problem: Any idea what pIC50 was measured for CCn1c(=O)c2c(C)c(C(=O)N3CCC(O)CC3)sc2n(CCC(F)(F)F)c1=O ?
Result: < 4.70

* * *

- Procedure Text: Half life in mouse at 1 mg/kg, iv administered as bolus dose by HPLC-MS/MS analysis
- Format: ADME, organism-based
- Condition Info: in vivo
Measured Quantity: half-life (h)
All answers are understood in h, so give the number only.

Problem: // query half-life value for entry CCn1c(=O)c2c(C)c(C(=O)N3CCC(O)CC3)sc2n(CCC(F)(F)F)c1=O
Result: 2.1

* * *

- Test System: Adenosine receptor A2a (Mus musculus, UniProt Q60613)
- Sequence (Q60613 whole entry): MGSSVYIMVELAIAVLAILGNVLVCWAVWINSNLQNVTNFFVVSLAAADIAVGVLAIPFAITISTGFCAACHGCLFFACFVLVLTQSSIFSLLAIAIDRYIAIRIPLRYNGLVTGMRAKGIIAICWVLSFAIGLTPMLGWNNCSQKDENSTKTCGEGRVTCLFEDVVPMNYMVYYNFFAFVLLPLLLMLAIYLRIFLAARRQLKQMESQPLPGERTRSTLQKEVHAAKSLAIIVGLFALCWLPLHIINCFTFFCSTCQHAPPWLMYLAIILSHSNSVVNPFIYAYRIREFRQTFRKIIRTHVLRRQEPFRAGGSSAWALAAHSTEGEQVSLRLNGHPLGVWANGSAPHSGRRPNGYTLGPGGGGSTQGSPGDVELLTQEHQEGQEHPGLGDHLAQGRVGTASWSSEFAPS
- Procedure Text: Antagonist activity at recombinant mouse A2A adenosine receptor expressed in CHO cells after 3 to 4 hrs by luciferase reporter gene assay
Measured Quantity: IC50 (nM)
Response body: numeric value in nM, unit text excluded.

Problem: Please report the recorded IC50 for CCn1c(=O)c2c(C)c(C(=O)N3CCC(O)CC3)sc2n(CCC(F)(F)F)c1=O .
Result: 470

* * *

- Procedure Text: Half life in dog at 0.3 mg/kg, iv administered as infusion for 15 mins by HPLC-MS/MS analysis
- Type: ADME, organism-based, Canis lupus familiaris
- Condition Info: in vivo
Measured Quantity: half-life (h)
Number in h, nothing else.

Problem: What does the data say about its half-life? Entry: CCn1c(=O)c2c(C)c(C(=O)N3CCC(O)CC3)sc2n(CCC(F)(F)F)c1=O
Result: 6.6

* * *

- Test System: Adenosine receptor A2b (Homo sapiens)
- Sequence (P29275 whole entry): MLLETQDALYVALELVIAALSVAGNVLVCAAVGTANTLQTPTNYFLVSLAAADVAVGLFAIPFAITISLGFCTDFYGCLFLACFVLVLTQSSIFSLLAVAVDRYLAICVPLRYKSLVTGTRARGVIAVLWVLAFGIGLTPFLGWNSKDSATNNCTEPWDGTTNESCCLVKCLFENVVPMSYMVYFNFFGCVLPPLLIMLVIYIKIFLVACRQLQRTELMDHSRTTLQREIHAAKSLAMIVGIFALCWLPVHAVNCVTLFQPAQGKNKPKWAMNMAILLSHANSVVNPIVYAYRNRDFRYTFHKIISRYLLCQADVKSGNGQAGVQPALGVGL
- Procedure Text: Displacement of [3H]DPCPX from human A2B adenosine receptor expressed in HEK293 cell membranes after 60 mins by radioligand displacement assay
Measured Quantity: IC50 (nM)

{"columns": ["Molecule", "Output Unit", "IC50"],
 "data": [
  ["COCCn1c(=O)n(CCc2ccccc2)c(=O)c2c(C)c(CO)sc21", "nM", 150]
]}

A: Cc1csc2c1c(=O)n(CCc1ccccc1)c(=O)n2CCF
B: COCCn1c(=O)n(CCc2ccccc2)c(=O)c2c(C)c(C(N)=O)sc21
Problem: Between A and B , which one shows the smaller IC50 number? Mark your selection by writing its label.
Result: A

* * *

- Procedure Text: Intrinsic clearance in rat hepatocytes by MS/MS analysis
- Assay type: ADME, cell-based, Hepatocyte
Measured Quantity: CLhep predicted (mL/min/kg)

I: CCn1c(=O)c2c(C)c(C(=O)N3CCC(O)CC3)sc2n(CCC(F)(F)F)c1=O
II: Cc1csc2c1c(=O)n(CCc1ccccc1)c(=O)n2CC1CCCO1 (stereo in doubt; 7)
Problem: Kindly identify which of I and II has the larger recorded CLhep predicted value. Your answer should be the label of the entry you select.
Result: II
(II: 66.7 mL/min/kg, I: 23.3 mL/min/kg)
